Values from patent US20150218212A1

Measured Log10LC50, listed per entry for reference.
Tested on: UACC-257
Experiment: NCI screening panel, UACC-257 (Melanoma)
Format: cell-based, human

Measured Log10LC50 (UACC-257), entry CC(C)C[C@H](NC(=O)[C@H](COC(F)F)NC(=O)CN1CCOCC1)C(=O)N[C@@H](COC(F)F)C(=O)N[C@@H](CC(C)C)C(=O)[C@@]1(C)CO1 : >−4.00

Measured Log10LC50 (UACC-257), entry CC(C)C[C@H](NC(=O)[C@H](COC(F)F)NC(=O)[C@H](COC(F)F)NC(=O)[C@H](CCc1ccccc1)NC(=O)CN1CCOCC1)C(=O)[C@@]1(C)CO1 : >−4.00

New cases:
Measured Log10LC50 (UACC-257), entry CC(C)C[C@H](NC(=O)[C@H](COC(F)F)NC(=O)CN1CCOCC1)C(=O)N[C@@H](Cc1ccccc1)C(=O)N[C@@H](Cc1ccccc1)C(=O)[C@@]1(C)CO1 : −4.53

* * *

Test system: HL-60(TB)
Assay: NCI screening panel, HL-60(TB) (Leukemia)
Format: cell-based, human
MEASUREMENT NAME: Log10TGI50
Simply state the number, no unit and no words.

Example entries begin here.
Recorded result, CC(C)C[C@H](NC(=O)[C@H](Cc1ccccc1)NC(=O)[C@H](COC(F)F)NC(=O)[C@H](COC(F)F)NC(=O)CN1CCOCC1)C(=O)[C@@]1(C)CO1 [Example 11] , Log10TGI50: −6.42

Recorded result, CC(C)C[C@H](NC(=O)[C@H](COC(F)F)NC(=O)CN1CCOCC1)C(=O)N[C@@H](Cc1ccccc1)C(=O)N[C@@H](Cc1ccccc1)C(=O)[C@@]1(C)CO1 [Example 3] , Log10TGI50: −6.67

New cases:
Recorded result, CC(C)C[C@H](NC(=O)[C@H](COC(F)F)NC(=O)CN1CCOCC1)C(=O)N[C@@H](COC(F)F)C(=O)N[C@@H](Cc1ccccc1)C(=O)[C@@]1(C)CO1 [Example 4] , Log10TGI50: −6.44

* * *

Test system: A549/ATCC
Assay: NCI screening panel, A549/ATCC (Non-Small Cell Lung Cancer)
Type: cell-based, human
MEASUREMENT NAME: Log10TGI50
Simply state the number, no unit and no words.

Recorded result, CC(C)C[C@H](NC(=O)[C@H](COC(F)F)NC(=O)[C@H](COC(F)F)NC(=O)[C@H](COC(F)F)NC(=O)CN1CCOCC1)C(=O)[C@@]1(C)CO1 , Log10TGI50: −5.06

New cases:
Recorded result, CC(C)C[C@H](NC(=O)[C@H](COC(F)F)NC(=O)CN1CCOCC1)C(=O)N[C@@H](COC(F)F)C(=O)N[C@@H](Cc1ccccc1)C(=O)[C@@]1(C)CO1 , Log10TGI50: −4.55

Recorded result, CC(C)C[C@H](NC(=O)[C@H](COC(F)F)NC(=O)CN1CCOCC1)C(=O)N[C@@H](COC(F)F)C(=O)N[C@@H](CC(C)C)C(=O)[C@@]1(C)CO1 , Log10TGI50: −5.49

Recorded result, CC(C)C[C@H](NC(=O)[C@H](COC(F)F)NC(=O)CN1CCOCC1)C(=O)N[C@@H](Cc1ccccc1)C(=O)N[C@@H](CC(C)C)C(=O)[C@@]1(C)CO1 , Log10TGI50: −5.93
